# test-system: Muscarinic acetylcholine receptor M4 (Homo sapiens) (UniProt P08173)
# Sequence (P08173 whole entry, looked up): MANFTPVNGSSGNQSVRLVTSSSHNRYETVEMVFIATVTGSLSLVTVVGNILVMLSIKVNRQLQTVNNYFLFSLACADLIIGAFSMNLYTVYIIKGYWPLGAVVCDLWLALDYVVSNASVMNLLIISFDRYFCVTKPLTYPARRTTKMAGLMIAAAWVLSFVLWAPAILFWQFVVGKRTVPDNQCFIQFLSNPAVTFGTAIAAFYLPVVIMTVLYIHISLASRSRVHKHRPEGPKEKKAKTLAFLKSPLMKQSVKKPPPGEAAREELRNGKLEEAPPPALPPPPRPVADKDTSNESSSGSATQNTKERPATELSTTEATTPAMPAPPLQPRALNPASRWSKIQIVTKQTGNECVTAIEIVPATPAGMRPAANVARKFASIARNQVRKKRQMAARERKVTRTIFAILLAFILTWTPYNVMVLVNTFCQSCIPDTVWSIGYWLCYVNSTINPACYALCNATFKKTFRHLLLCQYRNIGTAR
# method: human M4 muscarinic receptor positive allosteric modulators, primary screen, CHO-K1 cells, Fluo-8 calcium fluorescence (AID 624126)
# study-conditions: CHO-K1 hM4/Gqi5, Fluo-8 calcium fluorescence, ACh EC20; at 3 µM; stronger effect = higher value; 0% = ACh EC20, 100% = maximal ACh
Among all 360,000 compounds or so, about 1,400 (0.39%) were called active. Only a selection was taken, and actives are over-represented in it overall.
property-measured: activation (%)

compound | observed-measurement
CC(=O)n1cc([C@@H]2C=C(C(=O)N3CCN(Cc4ccc5c(c4)OCO5)CC3)O[C@H](OCc3ccc(CO)cc3)C2)c2ccccc21 | -4.81
CN(C)C(=O)N1CCNCC1 | 4.12
Cn1nnc(NC(=S)NC(=O)c2ccccc2)n1 | 22.4
Cc1cc(=O)[nH]c(Nc2cccc(Br)c2)n1 | -7.26
OC[C@@H]1CN(Cc2ccc(Cl)cc2)C[C@H](n2cnc3c(NCc4ccncc4)ncnc32)O1 | -0.98
Cc1cc2[nH]ncc2cc1NC(=S)NC(=O)c1ccccc1 | 31.9
COCCNc1ncnc2c1ncn2[C@H]1CN(CCN2CCOCC2)C[C@@H](CO)O1 | -3.76
O=C1c2ccccc2NC(c2ccccn2)N1NS(=O)(=O)c1ccccc1 (stereo not drawn) | 16.5
CC(=O)c1c(OCC(=O)N(C)C2CCCCC2)ccc2c(C)cc(=O)oc12 | 21.7
CC(C)(C)CC(=O)Nc1nnc(SCC(=O)NCc2cccs2)s1 | -0.98
Cc1cc(=O)[nH]c(N/N=C/c2ccc3c(c2)OCCO3)n1 | 31.5
Cc1ccc(C)c(NC2=NCC(=O)N2c2ccc3c(c2)OCCO3)c1 | -2.16
COC(=O)CSc1nnc(NC(=O)CCc2ccccc2)s1 | 19.8
COc1ccccc1Nc1ncc(C(C)=O)c(C)n1 | 2.09
COc1ccc(-c2ccc3c(c2)C2CC3CCN2CCC#N)cc1 (stereo not drawn) | -4.51
C[n+]1cccc(C(=O)O)c1 | -3.7
COCCn1c(SCC(=O)Nc2ccc3c(c2)CCC3)nc2ccccc2c1=O | -0.72
COCCNc1ncnc2c1ncn2[C@H]1CN(Cc2ccc(OC)cc2)C[C@@H](CO)O1 | 16.3
CCCCc1ccc(NC(=S)N2CCCC(CO)C2)cc1 (stereo not drawn) | 0.72
Cc1cc(=O)oc2c(C(=O)c3ccccc3)c(OCC(N)=O)ccc12 | -2.31
O=[N+]([O-])c1ccc(N2CCN(S(=O)(=O)c3ccc4ccccc4c3)CC2)cc1NCc1ccco1 | 14
CCN(CC(=O)NCc1cccs1)C(=O)c1ccccc1F | 0.45
CCOc1ccc(/C=C/C(=O)N(CC)CC(=O)NCc2cccs2)cc1OC | -5.1
